Experimental target: Human Calpain 1/NS1 (Homo sapiens, UniProt P07384)
Sequence (P07384 whole entry): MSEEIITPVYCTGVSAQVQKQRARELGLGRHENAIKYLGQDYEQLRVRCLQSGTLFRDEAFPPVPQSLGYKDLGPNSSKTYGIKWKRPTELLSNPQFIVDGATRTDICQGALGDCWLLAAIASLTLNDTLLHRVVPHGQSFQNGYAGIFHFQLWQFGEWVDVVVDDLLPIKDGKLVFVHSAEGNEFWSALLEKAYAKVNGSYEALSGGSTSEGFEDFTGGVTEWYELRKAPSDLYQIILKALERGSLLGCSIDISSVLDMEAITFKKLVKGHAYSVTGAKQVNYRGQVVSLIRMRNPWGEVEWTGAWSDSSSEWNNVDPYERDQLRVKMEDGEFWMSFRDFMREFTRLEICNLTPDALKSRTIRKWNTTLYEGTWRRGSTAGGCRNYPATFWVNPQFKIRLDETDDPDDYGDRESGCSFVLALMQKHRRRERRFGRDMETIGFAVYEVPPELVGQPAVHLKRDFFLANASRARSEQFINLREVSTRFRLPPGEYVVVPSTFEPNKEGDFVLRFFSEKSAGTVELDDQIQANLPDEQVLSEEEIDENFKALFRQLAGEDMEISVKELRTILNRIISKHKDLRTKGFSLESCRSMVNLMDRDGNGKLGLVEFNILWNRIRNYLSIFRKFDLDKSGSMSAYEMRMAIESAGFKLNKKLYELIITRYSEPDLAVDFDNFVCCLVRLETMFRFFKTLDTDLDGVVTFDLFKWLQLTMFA
Sequence (P04632 whole entry partner): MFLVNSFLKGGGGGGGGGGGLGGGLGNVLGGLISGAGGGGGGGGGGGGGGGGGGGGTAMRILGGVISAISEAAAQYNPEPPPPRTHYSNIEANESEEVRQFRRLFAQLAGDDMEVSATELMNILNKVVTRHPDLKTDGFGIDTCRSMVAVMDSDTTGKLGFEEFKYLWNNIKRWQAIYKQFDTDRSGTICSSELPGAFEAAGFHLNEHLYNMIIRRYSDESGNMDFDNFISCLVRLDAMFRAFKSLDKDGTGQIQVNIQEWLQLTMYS
Assay summary: Biochemical inhibition of Calpain 1, continuous fluorescence (FRET) assay
Experimental setup: mean; class symbols; read-out: Human Calpain 1/NS1 IC50 (nM)_MEAN
Endpoint label: IC50

Some solved cases for reference:
• CC(C)[C@H](NC(=O)OCc1ccccc1)C(=O)N[C@H]1CCCCCCCNC(=O)C1=O = < 3000 nM
• CC(C)C[C@H](NC(=O)[C@@H](NC(=O)OCc1ccccc1)C(C)C)C(=O)NC1CCCNC(=O)C1=O (some centres unmarked) = > 10000 nM
• CC(C)[C@H](NC(=O)OCc1ccccc1)C(=O)NC1CCCCCCNC(=O)C1=O (some centres unmarked) = < 3000 nM
• CC(C)[C@H](NC(=O)OCc1ccccc1)C(=O)NC1CCCNC(=O)C1=O (some centres unmarked) = 3000 to 10000 nM
• CC(C)[C@H](NC(=O)OCc1ccccc1)C(=O)NC1CCCN(C)C(=O)C1=O (some centres unmarked) = > 10000 nM
• CC(C)[C@H](NS(=O)(=O)c1ccc(F)cc1)C(=O)NC1CCCNC(=O)C1=O (some centres unmarked) = > 10000 nM
• O=C1NCCCCCC[C@H](NC(=O)c2ccccc2-c2ccccc2)C1=O = 3000 to 10000 nM

Q: What IC50 appears in the records for this compound with Human Calpain 1/NS1 (Homo sapiens, UniProt P07384)? CC(C)[C@H](NC(=O)OCc1ccccc1)C(=O)NC1CCNC(=O)C1=O (some centres unmarked)
Ans: > 10000 nM

* * *

Recorded IC50 by entry
Experimental target: Human Calpain 9/NS1 (Homo sapiens, UniProt O14815)
Sequence (O14815 whole entry, one chain of several): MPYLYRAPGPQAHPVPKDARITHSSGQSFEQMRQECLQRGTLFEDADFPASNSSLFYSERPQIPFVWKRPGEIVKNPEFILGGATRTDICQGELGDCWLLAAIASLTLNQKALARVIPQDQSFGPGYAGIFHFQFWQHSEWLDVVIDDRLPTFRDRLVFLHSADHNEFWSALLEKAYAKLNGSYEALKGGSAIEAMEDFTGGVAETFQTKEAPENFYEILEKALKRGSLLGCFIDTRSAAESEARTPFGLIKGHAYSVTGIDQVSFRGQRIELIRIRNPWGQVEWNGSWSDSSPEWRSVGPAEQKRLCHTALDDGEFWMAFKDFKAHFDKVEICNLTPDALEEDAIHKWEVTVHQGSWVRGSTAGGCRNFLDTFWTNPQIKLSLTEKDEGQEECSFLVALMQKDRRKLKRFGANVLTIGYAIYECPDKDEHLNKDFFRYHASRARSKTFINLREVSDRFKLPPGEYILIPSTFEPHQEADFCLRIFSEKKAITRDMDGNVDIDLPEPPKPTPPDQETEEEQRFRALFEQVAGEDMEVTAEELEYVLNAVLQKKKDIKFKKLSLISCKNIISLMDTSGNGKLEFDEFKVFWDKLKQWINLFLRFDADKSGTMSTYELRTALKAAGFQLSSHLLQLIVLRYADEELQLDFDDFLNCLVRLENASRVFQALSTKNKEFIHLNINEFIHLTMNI
Assay summary: Biochemical inhibition of Calpain 9, continuous fluorescence (FRET) assay
Experimental setup: mean; class symbols; read-out: Human Calpain 9/NS1 IC50 (nM)_MEAN

Some solved cases for reference:
• CC(C)C[C@H](NC(=O)[C@@H](NC(=O)OCc1ccccc1)C(C)C)C(=O)NC1CCCNC(=O)C1=O (some centres unmarked) = > 10000 nM
• CC(C)[C@H](NC(=O)OCc1ccccc1)C(=O)NC1CCCN(C)C(=O)C1=O (some centres unmarked) = > 10000 nM
• CC(C)[C@H](NC(=O)OCc1ccccc1)C(=O)NC1CCCCCCNC(=O)C1=O (some centres unmarked) = < 3000 nM

Q: Returns the measured IC50 for the input compound. Input: CC(C)[C@H](NS(=O)(=O)c1ccc(F)cc1)C(=O)NC1CCCNC(=O)C1=O (some centres unmarked)
Ans: > 10000 nM

Q: Returns the measured IC50 for the input compound. Input: "O=C1NCCCCCC[C@H](NC(=O)c2ccccc2-c2ccccc2)C1=O"
Ans: < 3000 nM

Q: Returns the measured IC50 for the input compound. Input: CC(C)[C@H](NC(=O)OCc1ccccc1)C(=O)NC1CCNC(=O)C1=O (some centres unmarked)
Ans: > 10000 nM

Q: Returns the measured IC50 for the input compound. Input: "CC(C)[C@H](NC(=O)OCc1ccccc1)C(=O)N[C@H]1CCCCCCCNC(=O)C1=O"
Ans: < 3000 nM

Q: Returns the measured IC50 for the input compound. Input: CC(C)[C@H](NC(=O)OCc1ccccc1)C(=O)NC1CCCNC(=O)C1=O (some centres unmarked)
Ans: > 10000 nM
